Sourced from patent US8017602B2

Each item that follows carries a reported β2 Int Act.
Target: Adrenergic β2 (Homo sapiens, UniProt P07550)
Construct: Adherent H292 cells were removed from tissue culture flasks; endogenous in cells; host or cells: H292 cells
Sequence (P07550 whole entry): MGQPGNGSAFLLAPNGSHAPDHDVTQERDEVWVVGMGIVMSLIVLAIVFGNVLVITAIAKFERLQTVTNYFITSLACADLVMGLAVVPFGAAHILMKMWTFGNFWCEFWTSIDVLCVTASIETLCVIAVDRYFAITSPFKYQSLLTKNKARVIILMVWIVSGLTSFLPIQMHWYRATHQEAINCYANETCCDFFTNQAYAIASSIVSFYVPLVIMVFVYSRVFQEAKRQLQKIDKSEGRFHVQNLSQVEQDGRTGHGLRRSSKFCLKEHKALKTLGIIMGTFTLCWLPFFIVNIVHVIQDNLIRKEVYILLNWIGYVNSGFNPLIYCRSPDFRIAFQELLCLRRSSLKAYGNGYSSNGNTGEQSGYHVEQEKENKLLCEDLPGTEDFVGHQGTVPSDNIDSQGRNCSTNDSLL
Assay: Adrenergic β2 mediated cAMP production in H292 cells (AlphaScreen cAMP detection)
Assay type: cell-based
Settings: Intrinsic Activity, fraction relative to the maximum activity determined for formoterol
Where a name gives a salt, the structure may show the parent alone.
Respond numerically, and do not add a unit to the figure.

CC(C)[C@@H](C)N(CCNCCc1ccc(O)c2c1OCC(=O)N2)C(=O)CCOCCc1cccc(-c2cnn(C)c2)c1 [Example 09, Trifluoroacetic Acid Salt]
0.92

Fill in the blank: the reported β2 Int Act of Cn1nnc(-c2cccc(CCOCCC(=O)N(CCNCCc3ccc(O)c4c3OCC(=O)N4)C3CCCCC3)c2)n1 [Example 07, Trifluoroacetic Acid Salt] is ____.
0.92

Next compound: Cn1cc(-c2cc(F)cc(CCOCCC(=O)N(CCNCCc3ccc(O)c4c3OCC(=O)N4)C3CCCCC3)c2)cn1 [Example 17, Trifluoroacetic Acid Salt]
0.94
